Just for reference, paper PMC2678953 is where these values come from.

Target: GIVA cPLA2 (Homo sapiens, UniProt P47712)
Sequence (P47712 1-749): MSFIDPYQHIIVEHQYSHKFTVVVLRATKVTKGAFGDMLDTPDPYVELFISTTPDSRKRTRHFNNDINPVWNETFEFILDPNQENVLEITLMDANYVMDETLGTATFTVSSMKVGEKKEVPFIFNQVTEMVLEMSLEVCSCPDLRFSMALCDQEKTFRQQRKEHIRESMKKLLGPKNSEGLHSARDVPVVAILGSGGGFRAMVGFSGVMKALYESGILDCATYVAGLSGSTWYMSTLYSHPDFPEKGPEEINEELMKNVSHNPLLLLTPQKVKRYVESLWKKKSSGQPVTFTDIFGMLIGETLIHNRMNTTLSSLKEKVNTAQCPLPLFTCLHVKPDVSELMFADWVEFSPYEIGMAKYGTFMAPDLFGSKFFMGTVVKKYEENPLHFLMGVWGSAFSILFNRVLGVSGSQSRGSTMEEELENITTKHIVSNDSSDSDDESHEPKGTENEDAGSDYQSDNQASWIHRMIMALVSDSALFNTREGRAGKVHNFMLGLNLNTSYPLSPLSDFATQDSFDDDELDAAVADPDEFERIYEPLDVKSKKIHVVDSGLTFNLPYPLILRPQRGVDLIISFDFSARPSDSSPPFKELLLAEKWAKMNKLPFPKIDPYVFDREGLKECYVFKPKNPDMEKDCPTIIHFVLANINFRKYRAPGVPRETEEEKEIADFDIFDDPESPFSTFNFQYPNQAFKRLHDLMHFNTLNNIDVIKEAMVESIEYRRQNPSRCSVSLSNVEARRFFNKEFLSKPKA
Assay: mixed-micelle PLA2 activity assay
Type: biochemical
Entries annotated with measured GIVA cPLA2

[
  {
    "molecule": "CCCCCCCCCCCCCCC(=O)C(=O)N[C@@H](CCCC)CCCNS(C)(=O)=O [14a]",
    "experimentalTarget": "GIVA cPLA2 (Homo sapiens, UniProt P47712)",
    "measureName": "GIVA cPLA2",
    "assayValue": "0.029 ± 0.019 mole fraction (XI(50))"
  }
]

-- ask Supply measured GIVA cPLA2 of `CCCCCCCCCCCCCCC(=O)C(=O)NCCCC(=O)N(C)S(=O)(=O)c1ccc(C)cc1` in your reply.
-- reply 0.033 ± 0.018 mole fraction (XI(50))

-- ask Supply measured GIVA cPLA2 of `CCCCCCCCCCCCCCC(=O)C(=O)NCCCNS(=O)(=O)c1ccc(C)cc1` in your reply.
-- reply 0.055 ± 0.006 mole fraction (XI(50))

-- ask Supply measured GIVA cPLA2 of CCCCCCCCCCCCCCC(=O)C(=O)N[C@@H](CCCC)CCCNS(=O)(=O)c1ccc(C)cc1 [14b] in your reply.
-- reply 0.033 ± 0.018 mole fraction (XI(50))
